molecular target: human GLP-1 receptor (human, UniProt P43220 24-463); assay: cell-based or functional assay
Starred links: 1 amine or outer side, 2 acyl side, 3 side chain; linkers in the order of their positions; H or OH if unused. Non-standard residues stand in square brackets, D forms with d. Groups on a side chain read outwards from the residue. No end group written: not given here. *: point of attachment. C18 diacid = O=C(O)CCCCCCCCCCCCCCCCC(=O)*; γGlu = O=C(O)[C@H](CCC(=O)[*:2])N[*:1]; αMeF = C[C@](N)(Cc1ccccc1)C(=O)O; AEEA = NCCOCCOCC(=O)O; Aib = CC(C)(N)C(=O)O
Readout Label: hGLP-1R EC50 (pM), cAMP
API: value field is a number in pM; no unit string.

> print(dat)
                                     binder  value.measured
1  H[Aib]HGS[αMeF]TSDVSK[αMeF]LDSRAAK([AEEA-γGlu-AEEA-γGlu-C18 diacid])D[αMeF]VQ[Aib]IANT-NH2 [Peptide 260]            33.1

Exercise: # get_value(readout='hGLP-1R EC50 (pM), cAMP', item= H[Aib]HGS[αMeF]TSDVSK[αMeF]LDSR[Aib]AK([AEEA-AEEA-γGlu-γGlu-C18 diacid])D[αMeF]VESIANT-NH2 [Peptide 250] )
Key: 601
